Exercise: state measured growth inhibition for each of the compounds provided.
- test description: NCI Yeast Anticancer Drug Screen. Data for the mec2-1 strain (AID 157)
- experimental parameters: S. cerevisiae mec2-1 strain, at 3.7 µM, hits give high values
About 79,000 compounds went through this panel and 15% of them were active in at least one assay; those are over-represented in the sample as a whole.
Answers are plain numbers, in %.

Record growth inhibition per entry; entries follow.
1. CC/C(=C(\c1ccccc1)c1ccc(OCCN(C)C)cc1)c1ccccc1
2. COC(=O)CSSCc1ccc([N+](=O)[O-])cc1

[-11, 2]

I have 7 compounds here; please give me growth inhibition for each one.
1. CC[C@@]1(O)C(=O)OCc2c1cc1n(c2=O)Cc2cc3c(CN(C)C)c(O)ccc3nc2-1
2. COc1ccc(-c2cn(-c3ccc(I)cc3)c3ncnc(N)c23)cc1
3. CCN(CC)CC[n+]1ccc2c(C)c3[nH]c4ccc(O)cc4c3c(C)c2c1
4. COc1cccc2nc3ccccc3nc12
5. CN(C)c1nc2sc3c(c2c(=O)o1)CCCC3
6. CCC/C(Cl)=N\OC(=O)Nc1cccc(C(F)(F)F)c1
7. CC(=O)Cc1ccc[cH-]1.[Fe+2].c1cc[cH-]c1

1. -2
2. -4
3. -13
4. 2
5. -1
6. 18
7. -5

What value of growth inhibition has been reported for the following compound? Cc1ccc(CCC2=CCCc3c2ccc2ccccc32)cc1
-5

====

- test description: NCI Yeast Anticancer Drug Screen. Data for the sgs1 strain (AID 173);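 also: 0% = growth of vehicle-only control cultures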
- experimental parameters: S. cerevisiae sgs1 mutant, at 100.0 µM
This is part of a sample that, as a whole, favours compounds with a hit. Of some 79,000 tested, about 15% had one in any assay. Active and inactive are the calls of the source. Cut-off read from the data, not from the text of the source: active = growth inhibition above about 70%; inactive = the rest.
Response enum: active, inactive

Answer briefly: the call reported for Cc1ccc(Nc2nc3c(=O)n(C)c(=O)n(C)c3nc2Nc2ccc(C)cc2)cc1 in this assay.
inactive

Tell me the assay call for c1ccc2c(c1)-c1nc3ccccc3cc1C2N1CCOCC1 (centres undefined) please.
inactive

Please share the test call associated with Clc1cccc(C(Nc2nncs2)Nc2nncs2)c1Cl .
active

Per the records of this test, what outcome belongs to CCCCN(CCCC)CCSc1ccc(Cl)cc1 ?
active

// param item: CCOc1ccc2c(c1)c(CC(=O)O)cn2C ; yields the recorded call
active

Please state the recorded outcome for this compound: CCOC(=O)c1cc(-c2ccc(Cl)cc2)c([N+](=O)[O-])n1C
active

// param item: O=C1CSc2cc([N+](=O)[O-])ccc2N1 ; yields the recorded call
inactive

For O=C(O)c1ccccc1NC(=S)c1ccccc1 , what call appears in the results of this test?
inactive

Tell me the assay call for Clc1ccccc1C1OC1c1ccccc1Cl (centres undefined) please.
inactive

Hi, do you know how COc1cc2ccc(/C=C\[N+](=O)[O-])cc2cc1OC came out in this test?
active

Entry COC(=O)c1cc(-c2ccc(C)cc2)[nH]c(=O)c1C#N : call = ?
inactive

# outcome recorded in this test, key = BrCc1cccc2ccc3cccc(CBr)c3c12
inactive

For this compound, state the assay outcome: C=CC(C)(O)CCC1C(=C)C(O)CC2C(C)(C)CCCC12C (centres undefined)
active

Which result was noted for this compound in the test: COc1ccc(NC(=S)N/N=C(\c2ccccc2)c2ccccn2)cc1
active

====

- test description: NCI Yeast Anticancer Drug Screen. Data for the mgt1 strain (AID 153)
- experimental parameters: S. cerevisiae mgt1 mutant growth inhibition; at 11.0 µM; hits give high values
About 79,000 compounds went through this panel and 15% of them were active in at least one assay; those are over-represented in the sample as a whole.
Kindly supply the reported growth inhibition values for the records listed here.
Answers are plain numbers, in %.

These recorded examples may help you get a feel for the data.
NC(=NCc1ccccc1)N/N=C\c1ccnc2ccccc12 :: 0
O=C1CSC(/C=C/c2ccccc2)N1c1ccc(-c2ccc(-n3c(-c4ccccc4)nc4ccccc4c3=O)cc2)cc1 (stereo not given) :: -4
CCCCCCCCC/C=C/C=C/C(=O)NCC(=O)NC1C(O)C(O)C(Nc2ncnc3nc[nH]c23)OC1C(O)CO (stereo not given) :: -14
CC(=O)OCC(=O)C1(O)CCC2C3CCC4CCCCC4(C)C3CCC21C (stereo not given) :: 34
CCOC(=O)c1cnc2cc(C(F)(F)F)ccc2c1N=[N+]=[N-] :: 22

For the 3 compounds below, give their growth inhibition values.
1. Cc1cc2c(cc1C(=O)CCC(=O)O)CC1(C2)Cc2cc(C)c(C(=O)CCC(=O)O)cc2C1
2. CCN(CC)C(=S)N/N=C(/C)c1cccc(/C(C)=N\NC(=S)N(CC)CC)n1
3. CC(=O)Oc1ccc2c(c1)Cc1cc(N=C3C=CC(=O)O3)ccc1-2

1. 12
2. 0
3. 99

# per-item lookup of growth inhibition; items listed below
1. c1ccc2c(c1)NC(NC1Nc3ccccc3N1)N2
2. Oc1cccc2c(Cl)ccnc12

1: -4; 2: 98
